Target: Potassium voltage-gated channel subfamily KQT member 2 (Rattus norvegicus) (UniProt O88943)
Sequence (O88943 whole entry, looked up): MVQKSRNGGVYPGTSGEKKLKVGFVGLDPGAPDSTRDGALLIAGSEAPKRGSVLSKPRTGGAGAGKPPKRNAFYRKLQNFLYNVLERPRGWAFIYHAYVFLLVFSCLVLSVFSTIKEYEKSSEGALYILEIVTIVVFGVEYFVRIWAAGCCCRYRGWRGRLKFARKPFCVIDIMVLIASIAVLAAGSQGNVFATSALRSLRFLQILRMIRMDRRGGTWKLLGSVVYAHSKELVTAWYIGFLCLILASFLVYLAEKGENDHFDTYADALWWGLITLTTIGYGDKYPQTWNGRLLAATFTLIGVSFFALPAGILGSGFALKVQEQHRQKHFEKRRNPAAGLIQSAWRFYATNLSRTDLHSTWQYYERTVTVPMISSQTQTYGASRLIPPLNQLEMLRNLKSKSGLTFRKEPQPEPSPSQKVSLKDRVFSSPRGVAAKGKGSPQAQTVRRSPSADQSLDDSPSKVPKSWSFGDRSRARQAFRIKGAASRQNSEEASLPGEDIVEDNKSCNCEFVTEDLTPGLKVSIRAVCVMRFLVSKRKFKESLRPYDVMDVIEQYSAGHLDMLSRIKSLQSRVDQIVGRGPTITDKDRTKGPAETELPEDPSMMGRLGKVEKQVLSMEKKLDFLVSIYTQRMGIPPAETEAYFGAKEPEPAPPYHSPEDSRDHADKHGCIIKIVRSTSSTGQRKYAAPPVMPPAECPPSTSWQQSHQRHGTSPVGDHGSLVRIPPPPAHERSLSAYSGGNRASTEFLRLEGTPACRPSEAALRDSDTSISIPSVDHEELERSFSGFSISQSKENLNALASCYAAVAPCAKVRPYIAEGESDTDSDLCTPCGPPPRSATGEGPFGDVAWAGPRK
Experiment: rat KCNQ2 channel potentiation, selectivity assay for KCNQ1 potentiator project, KCNQ2-CHO-K1 cells (AID 493009);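 note: assay conditions were tuned for KCNQ1 rather than KCNQ2 modulators; signal is max minus min fluorescence divided by baseline after thallium stimulus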
Conditions: FluxOR thallium flux fluorescence, at 10 µM, scaled: buffer 0, activator control 100
Active and inactive are the calls of the source.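 Rule for the calls: active = mean duplicate potentiation above the buffer control mean plus 5 SD of buffer wells; inactive = the rest.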
Outcomes: TRUE (active), FALSE (inactive)

> print(dat)
                                    compound  class.label
 1  Cc1sc2nc(C(C)C)nc(SCC(=O)N3c4ccccc4CC3C)c2c1C (centres undefined)         TRUE
 2       Cc1ccnc(NC(=S)NC(=O)c2cncc(Br)c2)c1        FALSE
 3  COc1cc(OC)c(-n2cc(-c3ccc(Cl)cc3)[nH]c2=O)cc1Cl        FALSE
 4  O=C(COC(=O)C1C2CC3OC(=O)C1C3C2)Nc1ccc(Cl)cc1 (centres undefined)        FALSE
 5  Cc1nn(-c2ccccc2)nc1C(=O)NNC(=O)c1cccc2ccccc12         TRUE
 6  O=C(O)c1ccc2c(c1)C(=O)N(c1ccc(Cl)cn1)C2=O        FALSE
 7  CCOc1ccc(S(=O)(=O)N2CCCC(C(=O)NCCN3CCOCC3)C2)cc1Cl (centres undefined)         TRUE
 8  COc1ccc(-c2csc(NC(=S)NC(=O)c3ccco3)n2)cc1Br        FALSE
 9  CC(C)n1c(O)c(N=NC(=O)C2COc3ccccc3O2)c2ccccc21 (centres undefined)         TRUE
10  CCNc1nc(NCC)n2c(SCC(=O)Nc3ccc(F)cc3)nnc2n1        FALSE
11       COc1cccc2sc(Nc3nnc(-c4cccs4)o3)nc12         TRUE
12  S=c1[nH]nc(-c2ccc(Cl)cc2)n1/N=C/C=C/c1ccco1        FALSE
13  CN(C)CCCn1c(=O)n(C2CCCCC2)c(=O)c2c3c(sc21)CCCCC3         TRUE
14  CCC1CCCCN1C(=S)NC(=O)c1cccc([N+](=O)[O-])c1 (centres undefined)         TRUE
15  O=C(c1ccc(COc2ccc(Cl)cc2)o1)N1CCN(Cc2ccc3c(c2)OCO3)CC1        FALSE
16             O=C(NC(=S)Nc1ccccc1Br)c1ccco1        FALSE
17  O=C(CCOc1ccccc1)Nc1ccnn1C1CCN(Cc2ccc(CO)o2)CC1        FALSE
18  O=C(CSc1nnc(SCc2cccc3ccccc23)s1)c1ccc2c(c1)OCO2        FALSE
19  Cc1nn(-c2ccccc2)c(Cl)c1/C=C1\SC(=S)NC1=O         TRUE
20           COc1ccc(Cl)cc1NC(=O)/C=C\C(=O)O        FALSE
21  O=C(CSc1nnc(-c2ccccn2)n1-c1ccc(Cl)cc1)Nc1ccc2c(c1)OCO2        FALSE
22  O=C(NC(=S)N1CCN(c2c(Cl)cccc2[N+](=O)[O-])CC1)c1cccs1         TRUE
23  O=[N+]([O-])c1ccc(/C([O-])=C(/C(=S)NCc2ccco2)[n+]2ccccc2)cc1        FALSE
24     N=c1sccn1CC(=O)Nc1cc(Cl)ccc1Oc1ccccc1        FALSE
25  COc1ccc(OC)c(NC(=O)C(=O)NNC(=O)C23CC4CC(CC(C4)C2)C3)c1         TRUE
26  O=c1[nH]c2ccc(Cl)cc2c(-c2ccccc2)c1N1CCN(CCO)CC1        FALSE
27  CC(Sc1nnnn1-c1ccc(O)cc1)C(=O)NC1CCCCC1C (centres undefined)        FALSE
28               CCCCn1c(=S)[nH]c2ncccc2c1=O         TRUE
29  COc1ccc(C(=O)NNC(=O)C(=O)Nc2ccc(C)cc2)cc1         TRUE
30  COC(=O)c1ccc(N2CCN(S(=O)(=O)c3ccc(Br)cc3)CC2)c([N+](=O)[O-])c1        FALSE
31  COc1cccc(C2=NOC(C(=O)NCc3cccs3)C2)c1 (centres undefined)        FALSE
32        CCOC(=O)c1c(-c2ccccc2)csc1NC(=S)NC         TRUE
33  CCN1CCN(C(c2ccccn2)c2c(NC(=O)c3ccccc3)sc(C)c2C)CC1 (centres undefined)        FALSE
34  COc1cccc(OCC(=O)NNC(=O)C(=O)Nc2cccc(C)c2)c1         TRUE

---

Target: Potassium voltage-gated channel subfamily KQT member 2 (Rattus norvegicus)
Assay: rat KCNQ2 channel potentiation, selectivity assay for KCNQ1 potentiator project, KCNQ2-CHO-K1 cells (AID 493009);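 note: assay conditions were tuned for KCNQ1 rather than KCNQ2 modulators; signal is max minus min fluorescence divided by baseline after thallium stimulus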
Settings: FluxOR thallium flux fluorescence, at 10 µM; stronger effect = higher value, scaled: buffer 0, activator control 100
The source made the active and inactive calls.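 How the source made its calls: active means mean duplicate potentiation above the buffer control mean plus 5 SD of buffer wells; inactive means the rest.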
observed-property: potentiation

> print(dat)
                                    compound  reported.value
 1  Cc1cc(/C=N/NC(=O)C(O)(c2ccccc2)c2ccccc2)c(C)n1-c1ccccc1        inactive
 2  COCCCN=C1NN=C(c2cc(C)n(-c3ccccc3F)c2C)CS1        inactive
 3    S=c1[nH]nc(-c2ccco2)n1/N=C/c1ccc(Br)s1        inactive
 4               CCCCn1c(=S)[nH]c2ccccc2c1=O   187% (active)
 5  CC(C)(C)c1cc(C(=O)NNC(=O)c2ccc(Cl)cc2)no1   257% (active)
 6  CCCCCCCCN1[C@@H](CC(C)=O)c2cc(C(F)(F)F)ccc2S1(=O)=O        inactive
 7  CC1CCCCC1NC(=S)NC(=O)c1sc2ccccc2c1Cl (centres undefined)        inactive
 8  Cc1ccc(F)cc1S(=O)(=O)NCc1ccc(N2CCN(C)CC2)cc1        inactive
 9    O=C1OC(c2ccc(F)cc2)=N/C1=C\c1ccc(Br)o1   266% (active)
10  COC(=O)c1ccc(C(=O)NC(=S)Nc2nc3c(s2)CCCC3)cc1   411% (active)
11  COC(=O)c1ccc(/C=C/c2ccc3cccc(OC)c3n2)cc1        inactive
12            CC(C)(C)c1ccc(Oc2ccc(N)cn2)cc1   282% (active)
13  COc1cccc(C(=O)NNC(=O)C(=O)Nc2cccc(Cl)c2C)c1   299% (active)
14       C/C(=N/NC(=O)c1ccc(Br)o1)c1ccc(C)o1        inactive
15  Oc1c(Cl)cc(Cl)cc1/C=N/NC(=S)NC1CC2C=CC1C2 (centres undefined)        inactive
16  CCN(CC)CCNc1ncnc2c1sc1nc(N3CCCC3)c3c(c12)CC(C)(C)OC3        inactive
17  Cc1ccc(Nc2c([N+](=O)[O-])ccc3nonc23)c(C)c1        inactive
18  COc1ccc(OC)c(NC(=O)C(=O)NNC(=O)COc2ccc(Br)cc2C)c1   614% (active)
19  Nc1c(Cl)cc(C2=NCCn3nc4cc(C(F)(F)F)ccc4c32)cc1Cl        inactive
20  CCn1c(CN2CCN(c3ccc(OC)cc3)CC2)nc2cc(S(=O)(=O)N(C)C)ccc21        inactive
21  CCOC(=O)c1cc2c(C)n(-c3ccc(C)cc3)c(C)c2ccc1=O        inactive
22  O=C(NC(=S)Nc1ccccc1N1CCOCC1)c1ccc(-c2cc(Cl)ccc2Cl)o1        inactive
23  COc1ccc(-c2csc(NC(=O)C3=NN(c4ccccc4)C(=O)CC3)n2)cc1        inactive
24  CC(NC(=O)c1ccccc1Cl)C1CC2CCC1C2 (centres undefined)        inactive

---

Assay: thallium flux activation in parental CHO cells, counter-screen for KCNQ1 potentiator project (AID 493006);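 for activation: fluorescence ratio of max minus min over baseline after K+ and Tl+ depolarization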
Settings: parental CHO-K1 cells, FluxOR thallium flux, at 10 µM
Calls of active or inactive are those of the source.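 How the source made its calls: active means duplicate-averaged activation above buffer control mean plus 5 SD of those controls; inactive means the rest.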
Outcome codes: true (1) (active), false (0) (inactive)

> print(dat)
                                    compound  class.label
 1  CC1CCC(n2c(=S)[nH]c3ccccc3c2=O)CC1 (stereo unspecified)     true (1)
 2  COc1cccc(C(=O)NC(=S)Nc2ccc3c4c(cccc24)CC3)c1    false (0)
 3  O=c1cc2c(nn1Cc1c(Cl)cccc1Cl)-c1ccccc1CC2    false (0)
 4  CCN(CC(=O)Nc1ccc(OC)cc1)C(=O)CSCC(=O)Nc1ccc(C)cc1    false (0)
 5      O=C(CNCC1CCCCC1)Nc1ccc(OC(F)(F)F)cc1    false (0)
 6             CNCC/C=C1/c2ccccc2CSc2ccccc21    false (0)
 7  COc1ccc(CN2C(=O)C(O)(CC(=O)c3ccc4c(c3)OCO4)c3ccccc32)cc1OC (stereo unspecified)    false (0)
 8  COC(=O)C1SCC2C(=O)N(Cc3ccc(F)cc3)CC(=O)N21 (stereo unspecified)    false (0)
 9  CC(=O)C[C@H]1c2cc(C(F)(F)F)ccc2S(=O)(=O)N1Cc1ccccc1    false (0)
10        C=CCN(CC=C)C(=S)NC(=O)c1ccc(OC)cc1     true (1)
11  COc1ccc(CCN=C(N)NS(=O)(=O)c2ccc(F)cc2)cc1OC    false (0)

Where do the numbers come from? From PubChem BioAssay.
